These data points were gathered from ChEMBL document CHEMBL1150291.

pKi: −log10 of the molar value.
Quick record of pKi values for 5-hydroxytryptamine receptor 1B (Homo sapiens, UniProt P28222).
measurement_type: pKi

> print(dat)
                            smiles.notation                              assay.target  measurement.type  recorded.result
1  COc1cccc(CN2CCN(CCOc3cccc4nc(C)ccc34)CC2)c1  5-hydroxytryptamine receptor 1B (Homo sapiens, UniProt P28222)               pKi             6.80
2  CC(=O)N(C)c1cccc(CN2CCN(CCOc3cccc4nc(C)ccc34)CC2)c1  5-hydroxytryptamine receptor 1B (Homo sapiens, UniProt P28222)               pKi             7.30
3  Cc1ccc2c(OCCN3CCC(Cc4cccc(NS(C)(=O)=O)c4)CC3)cccc2n1  5-hydroxytryptamine receptor 1B (Homo sapiens, UniProt P28222)               pKi             8.70

(a) CC(=O)Nc1cccc(CN2CCN(CCOc3cccc4nc(C)ccc34)CC2)c1
(b) Cc1ccc2c(OCCN3CCC(Cc4cccc(N(C)S(C)(=O)=O)c4)CC3)cccc2n1
Asked: Please choose the item with the lower pKi value from this pair: a and b Label of pick, please.
Given back: a
(a: 7.70, b: 7.90)

###

assay_target: 5-hydroxytryptamine receptor 1E (Homo sapiens)
Sequence (P28566 whole entry): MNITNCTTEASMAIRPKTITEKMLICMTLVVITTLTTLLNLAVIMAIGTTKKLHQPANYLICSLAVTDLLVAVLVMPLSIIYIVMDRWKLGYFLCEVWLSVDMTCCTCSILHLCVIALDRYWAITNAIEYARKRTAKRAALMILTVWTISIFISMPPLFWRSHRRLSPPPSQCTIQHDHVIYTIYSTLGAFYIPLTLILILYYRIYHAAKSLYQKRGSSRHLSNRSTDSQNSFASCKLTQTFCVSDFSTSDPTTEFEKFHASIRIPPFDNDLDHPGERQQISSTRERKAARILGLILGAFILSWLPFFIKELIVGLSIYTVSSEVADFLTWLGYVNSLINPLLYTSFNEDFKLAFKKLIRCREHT
protocol: Displacement of radioligand from human cloned 5HT1E receptor
measurement_type: Ki (µM)
Write the answer as a number in µM, unit excluded.

Asked: Need Ki of Cc1ccc2c(OCCN3CCC(Cc4cccc(NS(C)(=O)=O)c4)CC3)cccc2n1 , thanks.
Given back: 2.51

###

assay_target: 5-hydroxytryptamine receptor 6 (Homo sapiens, UniProt P50406)
Sequence (P50406 whole entry): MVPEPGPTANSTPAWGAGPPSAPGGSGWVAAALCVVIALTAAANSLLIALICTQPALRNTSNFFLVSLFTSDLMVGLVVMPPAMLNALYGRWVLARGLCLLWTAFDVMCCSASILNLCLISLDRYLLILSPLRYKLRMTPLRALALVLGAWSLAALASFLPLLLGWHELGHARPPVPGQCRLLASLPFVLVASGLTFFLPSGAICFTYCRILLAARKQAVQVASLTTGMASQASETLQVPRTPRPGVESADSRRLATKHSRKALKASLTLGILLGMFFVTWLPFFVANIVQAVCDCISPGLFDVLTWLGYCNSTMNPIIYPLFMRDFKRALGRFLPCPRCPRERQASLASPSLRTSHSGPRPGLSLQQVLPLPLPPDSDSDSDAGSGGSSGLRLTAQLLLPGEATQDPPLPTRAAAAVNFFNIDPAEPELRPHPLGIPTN
pKi: −log10 of the molar value.
measurement_type: pKi

Asked: Form field: pKi recorded for Cc1ccc2c(OCCN3CCC(Cc4cccc(NS(C)(=O)=O)c4)CC3)cccc2n1 with 5-hydroxytryptamine receptor 6 (Homo sapiens, UniProt P50406) (enter value)
Given back: < 5.00

###

assay_target: 5-hydroxytryptamine receptor 5A (Homo sapiens)
Sequence (P47898 whole entry): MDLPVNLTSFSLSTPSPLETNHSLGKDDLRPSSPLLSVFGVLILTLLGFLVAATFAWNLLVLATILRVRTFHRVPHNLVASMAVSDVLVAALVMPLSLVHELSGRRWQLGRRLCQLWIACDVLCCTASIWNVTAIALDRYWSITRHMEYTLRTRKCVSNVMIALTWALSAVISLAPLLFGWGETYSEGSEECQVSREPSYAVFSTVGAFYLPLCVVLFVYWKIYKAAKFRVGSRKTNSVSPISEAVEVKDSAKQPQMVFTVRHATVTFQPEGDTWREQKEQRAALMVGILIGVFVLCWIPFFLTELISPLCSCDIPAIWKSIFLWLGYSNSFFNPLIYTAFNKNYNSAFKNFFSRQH
measurement_type: Ki (nM)
Write the answer as a number in nM, unit excluded.

Asked: Form field: Ki recorded for Cc1ccc2c(OCCN3CCC(Cc4cccc(NS(C)(=O)=O)c4)CC3)cccc2n1 with 5-hydroxytryptamine receptor 5A (Homo sapiens) (enter value)
Given back: 1260

###

protocol: Half life in rat at 1 mg/kg, iv
Format: ADME, organism-based
Design: dose 1 mg/kg, route intravenous
test_conditions: in vivo
measurement_type: half-life (min)

Some molecules with known half-life results, for comparison:
> print(dat)
                            smiles.notation  recorded.result
1  Cc1ccc2c(OCCN3CCC(Cc4cccc(N5CCCC5=O)c4)CC3)cccc2n1               78
2  CCN(C(C)=O)c1cccc(CC2CCN(CCOc3cccc4nc(C)ccc34)CC2)c1               66
3  Cc1ccc2c(OCCN3CCC(Cc4cccc(NC(=O)C(C)C)c4)CC3)cccc2n1               54
4  Cc1ccc2c(OCCN3CCC(Cc4cccc(NS(C)(=O)=O)c4)CC3)cccc2n1               36

(a) CC(=O)Nc1cccc(CC2CCN(CCOc3cccc4nc(C)ccc34)CC2)c1
(b) Cc1ccc2c(OCCN3CCC(Cc4cccc(N5CCCS5(=O)=O)c4)CC3)cccc2n1
Asked: Please choose the item with the lower half-life value from this pair: a and b Label of pick, please.
Given back: a
